This collection of values is drawn from patent US9833497B2.

- Tested on: Enterobacter cloacae
- assay: MIC against Gram-negative bacteria: Enterobacter cloacae
- Type: cell-based
- particulars: Enterobacter cloacae; 5×10^5 CFU/mL; 10 h cultivation at 37° C.
property_name: MIC against E. cloacae (µg/mL)
Give bare numbers, in µg/mL.

Solved entries:
INSERT INTO assay_data (substance, numeric_result) VALUES
  ('PRT1388 (RDSCPVLCGGNGEYEKGHCVCRHGWKGPECDV; listed as Homo sapiens)', 12.5),
  ('PRT1442 (DKDECAKDNGGCQHECVNTFGSYLCRCRNGYWLHENGHDCK; listed as Homo sapiens)', 12.5),
  ('PRT1397 (PMNQCIDPSCGGHGSCIDGNCVCSAGYKGEHCE; listed as Homo sapiens)', 12.5);

The record that follows has no MIC against E. cloacae shown yet.
Using the record for PRT1471 (GKNWCEEDMENGGCEYLCLPAPQINDHSPKYTCSCPSGYNVEENGRDCQ; listed as Homo sapiens) , state its measured MIC against E. cloacae.
50
